Target: beta-site amyloid cleaving enzyme (BACE)1 (Homo sapiens)
Sequence (P56817 46-457): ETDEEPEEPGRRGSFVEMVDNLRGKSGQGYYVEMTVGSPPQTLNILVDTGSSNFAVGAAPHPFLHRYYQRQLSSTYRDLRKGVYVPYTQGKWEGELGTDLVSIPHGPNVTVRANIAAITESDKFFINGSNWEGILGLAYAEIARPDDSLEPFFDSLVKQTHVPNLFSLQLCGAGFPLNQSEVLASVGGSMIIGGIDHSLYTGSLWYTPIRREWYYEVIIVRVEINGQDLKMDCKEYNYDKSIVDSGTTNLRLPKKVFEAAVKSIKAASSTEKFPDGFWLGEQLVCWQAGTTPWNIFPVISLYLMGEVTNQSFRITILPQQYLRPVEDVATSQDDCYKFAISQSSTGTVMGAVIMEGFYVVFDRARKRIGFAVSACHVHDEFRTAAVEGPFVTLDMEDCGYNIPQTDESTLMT
Test: BACE1 FRET assay kit (Panvera), Swedish-mutant peptide substrate
pIC50: −log10 of the molar value.
measurementLabel: pIC50

INSERT INTO assay_data (molecule, observedmeasurement) VALUES
  ('COc1ccc(-c2oc3c(CC=C(C)C)c(O)cc(O)c3c(=O)c2O)cc1 [ICT, Icaritin]', 5.24);
